MEASUREMENT_NOTES: Brain and plasma drug levels after single oral dose in CD-1 mice
Assay type: in vivo, mouse
EXPERIMENTAL_CONTEXT: mouse, brain; single 20 mg/kg PO, female CD-1 mice, 7 hrs; read-out: Drug level in brain
READOUT: concentration at 7 h (ng/g)

{"MOLECULE": "O=C(CC1Cc2ccccc2C1)N[C@H](CN1CCCC1)[C@H](O)c1ccc(OC(F)(F)F)cc1 [Example 7]", "RECORDED_NUMBER": 68}

----------
MEASUREMENT_NOTES: Brain and plasma drug levels after single oral dose in CD-1 mice
Assay type: in vivo, mouse
EXPERIMENTAL_CONTEXT: mouse, brain; single 20 mg/kg PO, female CD-1 mice, 1 hr; read-out: Drug level in brain
Parameter: concentration at 1 h. Scope: all listed entries.
READOUT: concentration at 1 h

{"MOLECULE": "O=C(CC1Cc2ccccc2C1)N[C@H](CN1CCCC1)[C@H](O)c1ccc2c(c1)OCCO2 [control]", "READOUT": "concentration at 1 h", "RESULT": "5 ng/g"}
{"MOLECULE": "O=C(CC1Cc2ccccc2C1)N[C@H](CN1CCCC1)[C@H](O)c1ccc(OC(F)(F)F)cc1", "READOUT": "concentration at 1 h", "RESULT": "193 ng/g"}

----------
MEASUREMENT_NOTES: Mouse liver microsome stability
Assay type: in vitro ADME
EXPERIMENTAL_CONTEXT: mouse liver microsomes; read-out: Mouse liver microsome t1/2
READOUT: log10 of half-life (log10 of the value in min)

{"MOLECULE": "O=C(CC1Cc2ccccc2C1)N[C@H](CN1CCCC1)[C@H](O)c1ccc2c(c1)OCCO2 [control]", "READOUT": "log10 of half-life", "RECORDED_NUMBER": 0.18}
{"MOLECULE": "O=C(CC1Cc2ccccc2C1)N[C@H](CN1CCCC1)[C@H](O)c1ccc(OC(F)(F)F)cc1 [Example 7]", "READOUT": "log10 of half-life", "RECORDED_NUMBER": 1.57}
{"MOLECULE": "COc1cccc([C@@H](O)[C@@H](CN2CCCC2)NC(=O)CC2Cc3ccccc3C2)c1 [Example 3]", "READOUT": "log10 of half-life", "RECORDED_NUMBER": 0.60}
{"MOLECULE": "COc1ccc([C@@H](O)[C@@H](CN2CCCC2)NC(=O)CC2Cc3ccccc3C2)cc1 [Example 2]", "READOUT": "log10 of half-life", "RECORDED_NUMBER": 0.74}
{"MOLECULE": "O=C(CC1Cc2ccccc2C1)N[C@H](CN1CCCC1)[C@H](O)c1ccc(OCC(F)(F)F)cc1 [Example 12]", "READOUT": "log10 of half-life", "RECORDED_NUMBER": 1.04}
{"MOLECULE": "COc1ccc([C@@H](O)[C@@H](CN2CCCC2)NC(=O)CC2Cc3ccccc3C2)cc1F [Example 1]", "READOUT": "log10 of half-life", "RECORDED_NUMBER": 0.43}

----------
MEASURED_TARGET: GCS in MDR1-MDCKII cells (Canis lupus familiaris, UniProt A0A8I3MXG6)
Sequence (A0A8I3MXG6 1-394): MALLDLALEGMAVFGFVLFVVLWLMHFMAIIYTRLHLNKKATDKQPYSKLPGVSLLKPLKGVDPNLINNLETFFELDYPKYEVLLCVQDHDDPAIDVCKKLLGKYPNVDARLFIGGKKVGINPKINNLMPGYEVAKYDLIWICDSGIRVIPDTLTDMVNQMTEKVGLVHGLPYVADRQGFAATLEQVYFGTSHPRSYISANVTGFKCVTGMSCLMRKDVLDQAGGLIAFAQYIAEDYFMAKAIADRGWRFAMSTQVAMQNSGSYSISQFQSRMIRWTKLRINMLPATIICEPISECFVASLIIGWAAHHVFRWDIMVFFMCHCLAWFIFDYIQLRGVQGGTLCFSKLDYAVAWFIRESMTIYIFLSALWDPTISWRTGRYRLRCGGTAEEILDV
EXPERIMENTAL_CONTEXT: read-out: MDR1-MDCKII IC50; MDCKII cells stably expressing human MDR1, 24 hours

{"COMPOUND": "O=C(CC1Cc2ccccc2C1)N[C@H](CN1CCCC1)[C@H](O)c1ccc2c(c1)OCCO2 [control]", "IC50 (µM)": 0.024}
{"COMPOUND": "O=C(CC1Cc2ccccc2C1)N[C@H](CN1CCCC1)[C@H](O)c1ccc(OCC2CC2)cc1", "IC50 (µM)": 0.00084}
{"COMPOUND": "COc1ccccc1[C@@H](O)[C@@H](CN1CCCC1)NC(=O)CC1Cc2ccccc2C1", "IC50 (µM)": 0.056}
{"COMPOUND": "O=C(CC1Cc2ccccc2C1)N[C@H](CN1CC[C@@H](F)C1)[C@H](O)c1ccc(OC(F)(F)F)cc1", "IC50 (µM)": 0.047}
